- system-under-test: T1, Human CD3eg linker (human)
- T1 construct: Single-chain construct; also called recombinant human CD3
- T1 chain: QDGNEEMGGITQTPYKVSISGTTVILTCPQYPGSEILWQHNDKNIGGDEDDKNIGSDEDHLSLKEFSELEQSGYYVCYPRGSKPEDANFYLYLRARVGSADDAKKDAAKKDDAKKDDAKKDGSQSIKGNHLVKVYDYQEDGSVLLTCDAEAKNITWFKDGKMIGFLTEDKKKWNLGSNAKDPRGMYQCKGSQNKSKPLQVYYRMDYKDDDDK
- experimental-protocol: SPR; fold vs parent H183/L072
readout-name: fold change of affinity (fold)
Reply with just the number (in fold).

Field: example entries. Status: answers known.
- binder: "H183/L072 VL Q90S (antibody, name in Kabat numbering, V domains shown) VH: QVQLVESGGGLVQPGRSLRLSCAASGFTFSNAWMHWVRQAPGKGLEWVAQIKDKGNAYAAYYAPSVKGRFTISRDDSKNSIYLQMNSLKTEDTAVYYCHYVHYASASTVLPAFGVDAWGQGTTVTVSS VL: DIVMTQSPLSLPVTPGEPASISCQASQELVHMNRNTYLHWYQQKPGQAPRLLIYKVSNRFPGVPDRFSGSGSGTDFTLKISRVEAEDVGVYYCASGTSVPFTFGQGTKLEIK"
  readout-name: "fold change of affinity"
  scale-unit: "fold"
  endpoint-result: 0
- binder: "H183/L072 VL R29F (antibody, name in Kabat numbering, V domains shown) VH: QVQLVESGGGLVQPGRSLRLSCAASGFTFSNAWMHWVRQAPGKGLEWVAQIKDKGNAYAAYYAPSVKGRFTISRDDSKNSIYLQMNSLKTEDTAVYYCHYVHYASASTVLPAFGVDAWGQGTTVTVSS VL: DIVMTQSPLSLPVTPGEPASISCQASQELVHMNFNTYLHWYQQKPGQAPRLLIYKVSNRFPGVPDRFSGSGSGTDFTLKISRVEAEDVGVYYCAQGTSVPFTFGQGTKLEIK"
  readout-name: "fold change of affinity"
  scale-unit: "fold"
  endpoint-result: 0.6

For H183/L072 VL L27bD (antibody, name in Kabat numbering, V domains shown) VH: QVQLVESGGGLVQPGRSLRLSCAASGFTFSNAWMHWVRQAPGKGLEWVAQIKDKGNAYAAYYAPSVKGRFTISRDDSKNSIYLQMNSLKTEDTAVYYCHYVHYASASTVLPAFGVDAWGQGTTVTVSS VL: DIVMTQSPLSLPVTPGEPASISCQASQEDVHMNRNTYLHWYQQKPGQAPRLLIYKVSNRFPGVPDRFSGSGSGTDFTLKISRVEAEDVGVYYCAQGTSVPFTFGQGTKLEIK the binder record lists fold change of affinity as 0
